Provenance of the data: the supplement of paper PMC9112550

# Test system: Escherichia coli TOP10;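 also: peptides expressed intracellularly from a pBAD plasmid library in pooled LB shake-flask culture, induced with 0.3% L-arabinose, DNA abundance read by NGS, three biological replicates, DESeq2 with apeglm shrinkage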
# ASSAY_TEXT: shrunken log2 fold change of peptide-encoding DNA abundance (4.5 h post-induction vs induction); higher = less antimicrobial activity (less host growth inhibition)
# CONDITIONS: time post-induction: 4.5 h; library: site-saturation at positions 5, 18, 19, 20
Note to self: values exactly at -0.02 are Yes. So shrunken log2 fold change at or above -0.02 is Yes, below is No.

>  <CONSTRUCT_SEQUENCE>
RRIRCRPPRLPRPRPRPGQWPRP

>  <ANSWER_LABEL>
No

$$$$
>  <CONSTRUCT_SEQUENCE>
RRIRMRPPRLPRPRPRPCACPRP

>  <ANSWER_LABEL>
Yes

$$$$
>  <CONSTRUCT_SEQUENCE>
RRIRMRPPRLPRPRPRPFSPPRP

>  <ANSWER_LABEL>
No

$$$$
>  <CONSTRUCT_SEQUENCE>
RRIRSRPPRLPRPRPRPLMYPRP

>  <ANSWER_LABEL>
No

$$$$
>  <CONSTRUCT_SEQUENCE>
RRIRHRPPRLPRPRPRPQWVPRP

>  <ANSWER_LABEL>
Yes

$$$$
>  <CONSTRUCT_SEQUENCE>
RRIRMRPPRLPRPRPRPHLAPRP

>  <ANSWER_LABEL>
Yes

$$$$
>  <CONSTRUCT_SEQUENCE>
RRIRVRPPRLPRPRPRPGKSPRP

>  <ANSWER_LABEL>
No

$$$$
>  <CONSTRUCT_SEQUENCE>
RRIRCRPPRLPRPRPRPSNQPRP

>  <ANSWER_LABEL>
No

$$$$
>  <CONSTRUCT_SEQUENCE>
RRIRSRPPRLPRPRPRPPCDPRP

>  <ANSWER_LABEL>
Yes

$$$$
>  <CONSTRUCT_SEQUENCE>
RRIRKRPPRLPRPRPRPGDSPRP

>  <ANSWER_LABEL>
Yes

$$$$
>  <CONSTRUCT_SEQUENCE>
RRIRWRPPRLPRPRPRPQMMPRP

>  <ANSWER_LABEL>
No

$$$$
>  <CONSTRUCT_SEQUENCE>
RRIRQRPPRLPRPRPRPTYMPRP

>  <ANSWER_LABEL>
No

$$$$
>  <CONSTRUCT_SEQUENCE>
RRIRDRPPRLPRPRPRPSKCPRP

>  <ANSWER_LABEL>
No

$$$$
>  <CONSTRUCT_SEQUENCE>
RRIRRRPPRLPRPRPRPIHFPRP

>  <ANSWER_LABEL>
No

$$$$
>  <CONSTRUCT_SEQUENCE>
RRIRKRPPRLPRPRPRPHMIPRP

>  <ANSWER_LABEL>
No

$$$$
